systemTested: ALK5 (Homo sapiens)
Construct: Cells were seeded at 3×10^4/well in 24-well plates were transiently transfected with 500 ng of (CAGA)-12-luciferase reporter construct; endogenous in cells
Sequence (P36897 34-503): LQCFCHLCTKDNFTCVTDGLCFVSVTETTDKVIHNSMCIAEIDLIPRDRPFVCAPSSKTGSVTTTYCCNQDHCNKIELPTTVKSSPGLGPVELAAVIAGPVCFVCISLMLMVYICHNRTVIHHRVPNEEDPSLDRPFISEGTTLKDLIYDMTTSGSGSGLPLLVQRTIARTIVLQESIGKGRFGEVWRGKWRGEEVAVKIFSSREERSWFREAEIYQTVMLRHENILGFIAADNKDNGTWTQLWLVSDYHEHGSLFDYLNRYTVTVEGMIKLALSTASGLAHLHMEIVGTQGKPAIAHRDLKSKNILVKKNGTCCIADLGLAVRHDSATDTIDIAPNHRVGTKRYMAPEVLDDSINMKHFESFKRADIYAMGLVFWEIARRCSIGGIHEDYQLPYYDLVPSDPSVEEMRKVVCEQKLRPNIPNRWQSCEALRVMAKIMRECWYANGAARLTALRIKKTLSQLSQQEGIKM
methodNotes: Cell-based luciferase reporter assay for ALK5 activity
settings: (CAGA)-12-luciferase reporter, cells stimulated with 2 ng/ml recombinant TGF-β1 for 12 hours; Hs578T cells; read-out: Relative luciferase activity: IC50 value
measurementType: IC50

compound: Cc1cccc(-c2[nH]c(NCc3ccc(F)c(F)c3)nc2-c2ccc3c(cnn3C(F)F)c2)n1 [Example 29]
systemTested: ALK5 (Homo sapiens)
endpointValue: 10 to 100 nM
--
compound: Cc1cccc(-c2[nH]c(NCc3cccc(F)c3)nc2-c2cnc3[nH]ncc3c2)n1 [Example 38]
systemTested: ALK5 (Homo sapiens)
endpointValue: 10 to 100 nM

QUERY: Need IC50, item Cc1cccc(-c2[nH]c(NCc3ccc(Cl)c(Cl)c3)nc2-c2ccc3c(cnn3C(F)F)c2)n1 [Example 28]
RESULT: 10 to 100 nM

QUERY: Ok, now Cc1cccc(-c2[nH]c(NCc3cccc(F)c3)nc2-c2cc3cnn(C)c3cn2)n1 [Example 33]
RESULT: < 10 nM

QUERY: Ok, now Cc1cccc(-c2[nH]c(NCc3ccc(C)c(F)c3)nc2-c2ccc3c(cnn3C)c2)n1 [Example 19]
RESULT: < 10 nM

QUERY: Ok, now Cc1cccc(-c2[nH]c(NCc3cccc(Cl)c3F)nc2-c2ccc3c(cnn3C)c2)n1 [Example 23]
RESULT: < 10 nM

QUERY: Ok, now Cc1ccc(CNc2nc(-c3ccc4c(cnn4C)c3)c(-c3cccc(C)n3)[nH]2)c(F)c1 [Example 18]
RESULT: < 10 nM
